Origin of the recorded values: patent US20170355771A1

Kd values for the binders below.
# assay.system: T1, GPIIb/IIIa (SEQ ID NOs: 23 and 24) (human, UniProt P08514 32-994; P05106 27-716)
# T1 construct: also called GPIIb/IIIa complex
# T1 sequence (P08514 32-994 limits assumed, chain 1 of 2): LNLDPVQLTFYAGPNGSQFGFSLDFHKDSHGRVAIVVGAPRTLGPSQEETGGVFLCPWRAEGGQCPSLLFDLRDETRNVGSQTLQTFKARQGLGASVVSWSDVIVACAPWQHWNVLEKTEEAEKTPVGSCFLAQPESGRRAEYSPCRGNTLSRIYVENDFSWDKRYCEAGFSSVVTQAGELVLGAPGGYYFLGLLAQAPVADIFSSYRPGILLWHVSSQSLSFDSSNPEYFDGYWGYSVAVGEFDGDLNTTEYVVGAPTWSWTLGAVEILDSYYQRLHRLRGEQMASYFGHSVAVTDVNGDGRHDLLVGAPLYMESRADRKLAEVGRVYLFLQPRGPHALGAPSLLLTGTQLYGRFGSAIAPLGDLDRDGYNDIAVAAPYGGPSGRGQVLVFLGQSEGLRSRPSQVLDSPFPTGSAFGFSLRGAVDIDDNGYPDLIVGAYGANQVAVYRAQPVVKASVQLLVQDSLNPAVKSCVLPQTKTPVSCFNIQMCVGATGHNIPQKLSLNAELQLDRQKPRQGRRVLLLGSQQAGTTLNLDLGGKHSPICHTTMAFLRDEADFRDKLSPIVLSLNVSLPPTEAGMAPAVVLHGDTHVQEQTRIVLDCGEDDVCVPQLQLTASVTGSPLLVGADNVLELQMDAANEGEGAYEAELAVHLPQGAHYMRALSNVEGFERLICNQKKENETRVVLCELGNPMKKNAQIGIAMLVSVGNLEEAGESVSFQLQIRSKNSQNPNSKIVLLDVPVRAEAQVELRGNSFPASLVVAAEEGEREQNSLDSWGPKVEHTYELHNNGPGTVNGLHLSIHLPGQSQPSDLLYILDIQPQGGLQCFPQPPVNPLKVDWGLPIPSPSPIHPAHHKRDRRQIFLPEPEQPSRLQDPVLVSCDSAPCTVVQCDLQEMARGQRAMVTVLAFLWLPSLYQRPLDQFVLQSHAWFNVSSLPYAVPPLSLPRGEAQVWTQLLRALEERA
# T1 sequence (P05106 27-716 limits assumed, chain 2 of 2): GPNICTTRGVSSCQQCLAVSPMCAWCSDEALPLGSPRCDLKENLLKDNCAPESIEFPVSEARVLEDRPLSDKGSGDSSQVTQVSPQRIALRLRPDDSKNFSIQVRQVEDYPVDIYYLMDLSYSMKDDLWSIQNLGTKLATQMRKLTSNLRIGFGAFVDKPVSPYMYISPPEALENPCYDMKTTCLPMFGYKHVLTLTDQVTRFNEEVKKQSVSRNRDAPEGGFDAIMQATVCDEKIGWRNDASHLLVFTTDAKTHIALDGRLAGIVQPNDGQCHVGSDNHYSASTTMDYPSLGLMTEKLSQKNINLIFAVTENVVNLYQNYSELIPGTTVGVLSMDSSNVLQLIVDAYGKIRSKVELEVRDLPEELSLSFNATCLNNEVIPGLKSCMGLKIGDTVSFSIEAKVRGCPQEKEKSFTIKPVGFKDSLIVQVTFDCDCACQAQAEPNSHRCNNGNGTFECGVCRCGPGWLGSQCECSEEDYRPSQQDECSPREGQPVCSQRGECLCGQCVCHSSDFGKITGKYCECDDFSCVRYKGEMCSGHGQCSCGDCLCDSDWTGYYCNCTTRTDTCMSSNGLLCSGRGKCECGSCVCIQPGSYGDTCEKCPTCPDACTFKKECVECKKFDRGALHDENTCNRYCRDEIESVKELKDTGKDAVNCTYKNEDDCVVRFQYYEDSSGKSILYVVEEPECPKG
# assay.protocol: Bio-Layer Interferometry (OctetRed), monovalent format, yeast-purified Fab; apparent monovalent affinity
Form entry: value (nM) — number only.

IN: What value of Kd has been recorded for this entry: affinity matured h34D10 Fab VH113/VL0 (Fab, V domains shown, Yeast-purified Fab) VH: EVQLVESGGGLVKPGGSLRLSCAASGFTFSAYAMSWVRQAPGKGLVWVAGISSGGTTYYPDSVKRQFTISRDNAKNTLYLQMNSLRAEDTAVYYCTRGGDYGYALDYWGQGTLVTVSS VL: EIVMTQSPATLSVSPGERATLSCRASSSVNYMYWYQQKPGQAPRLLIYYTSNLAPGIPARFSGSGSGTEFTLTISSLQSEDFAVYYCQQFSSSPWTFGQGTKVEIK
OUT: 160

IN: And the next one, affinity matured h34D10 Fab VH118/VL0 (Fab, V domains shown, Yeast-purified Fab) VH: GVQLVESGGGLVKPGGSLRLSCAASGFTFSAYAMSWVRQAPGKGLVWVASISSGGTTYYPDSVKRQFTISRDNAKNTLYLQMNSLRAEDTAVYYCTRGGDYGYALDYWGQGALVTVSS VL: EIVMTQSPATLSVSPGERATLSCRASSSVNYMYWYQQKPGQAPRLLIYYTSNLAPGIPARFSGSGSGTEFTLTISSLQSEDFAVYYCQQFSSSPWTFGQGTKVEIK ?
OUT: 200
